- ASSAY TARGET: BACE1 in primary mouse cortical neurons (mouse, UniProt P56818 46-501)
- Sequence (P56818 46-501): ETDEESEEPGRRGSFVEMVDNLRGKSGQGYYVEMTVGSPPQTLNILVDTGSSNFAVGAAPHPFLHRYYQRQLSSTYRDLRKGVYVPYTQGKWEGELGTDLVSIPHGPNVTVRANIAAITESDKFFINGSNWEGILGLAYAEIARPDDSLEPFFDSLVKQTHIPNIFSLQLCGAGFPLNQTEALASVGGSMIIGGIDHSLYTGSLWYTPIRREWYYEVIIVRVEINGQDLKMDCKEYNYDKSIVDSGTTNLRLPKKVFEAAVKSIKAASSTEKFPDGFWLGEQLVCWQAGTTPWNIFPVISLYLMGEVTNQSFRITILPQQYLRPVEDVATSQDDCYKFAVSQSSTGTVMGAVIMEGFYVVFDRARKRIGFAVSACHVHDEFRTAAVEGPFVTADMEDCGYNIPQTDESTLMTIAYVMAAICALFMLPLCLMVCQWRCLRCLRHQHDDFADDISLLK
- ASSAY NOTES: cell-based or functional assay
So basically: is IC50, Abeta x-40 in mouse cortical neurons under 0.9 nM? Then yes. Not under? Then no.

BINDER	ASSIGNED LABEL
5983 (antibody, V domains shown, anti-BACE1 IgG) VH: QLQLQESGPGLVKPSETLSLTCTVSGGSISSSSYYWGWIRQPPGKGLEWIGNIYYSGSTYYNPSLRSRVTISVDTSKNQFFLKLSSVTAADTAVYYCARLGHGYNYFDLWGRGTLVTVSS VL: EIVLTQSPATLSLSPGERATLSCRASQSVSSYLAWFQQKPGQAPRLLIYDASNRATGIPARFSGSGSGTDFTLTISSLEPEDFAVYYCQQVYVWPPRTFGGGTKVEIK	no
5905 (antibody, V domains shown, anti-BACE1 IgG) VH: QLQLQESGPGLVKPSETLSLTCTVSGGSISWSSYYWSWIRQPPGKGLEWIGSIYRSGRTYYNPSLKSRVTISVDTSKNQFSLKLSSVTAADTAVYYCARVGHGISYFDLWGRGTLVTVSS VL: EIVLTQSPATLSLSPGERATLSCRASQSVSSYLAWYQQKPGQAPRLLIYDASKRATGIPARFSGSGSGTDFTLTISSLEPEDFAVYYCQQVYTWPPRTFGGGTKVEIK	yes
6275 (antibody, V domains shown, anti-BACE1 IgG) VH: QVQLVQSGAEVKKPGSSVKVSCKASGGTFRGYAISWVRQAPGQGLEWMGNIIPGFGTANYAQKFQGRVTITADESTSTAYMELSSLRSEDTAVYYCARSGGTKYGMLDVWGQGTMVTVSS VL: EIVMTQSPATLSVSPGERATLSCRASQSVSSNLAWYQQKPGQAPRLLIYGASTRATGIPARFSGSGSGTEFTLTISSLQSEDFAVYYCQQLFLWPPRTFGGGTKVEIK	no
6279 (antibody, V domains shown, anti-BACE1 IgG) VH: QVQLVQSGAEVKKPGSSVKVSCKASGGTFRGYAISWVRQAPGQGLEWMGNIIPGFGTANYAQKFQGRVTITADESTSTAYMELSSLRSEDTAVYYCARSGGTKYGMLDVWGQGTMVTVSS VL: EIVMTQSPATLSVSPGERATLSCRASQSVSSNLAWYQQKPGQAPRLLIYGASTRATGIPARFSGSGSGTEFTLTISSLQSEDFAVYYCQQLLLWPPRTFGGGTKVEIK	no
